Test system: WaGa
ASSAY_METHOD_TEXT: qHTS assay to identify novel small-molecules to repurpose for Merkel cell carcinoma treatment (AID 1296009); further: nearly all actives have a fitted effect of over 60% in size
DETAILS: MCC and control cell lines, CellTiter-Glo viability, 72 h; series mostly up to 46 µM
Records with an inconclusive call do not appear. Active and inactive are the calls of the source. The call rests on the fitted dose curve; in most records, active means well fitted inhibition curve with a large enough effect; inconclusive means small, poorly fitted or top-dose-only effect; inactive means flat fitted curve, though single readings scatter.
Outcome codes: active, inactive

[
  {
    "SUBSTANCE_SMILES": "CC(C)c1cnn2c(NCc3ccccc3)cc(NCCCCCCN)nc12",
    "GROUP_LABEL": "inactive"
  },
  {
    "SUBSTANCE_SMILES": "COc1cc2c(Nc3ccc(Cl)c(Cl)c3F)ncnc2cc1OCC1C[C@@H]2CN(C)C[C@H]2C1",
    "GROUP_LABEL": "active"
  },
  {
    "SUBSTANCE_SMILES": "C[C@@H](NCc1cc2ccccc2[nH]1)c1cccc2ccccc12",
    "GROUP_LABEL": "inactive"
  },
  {
    "SUBSTANCE_SMILES": "CCOc1cc2ncc(C#N)c(Nc3ccc(OCc4ccccn4)c(Cl)c3)c2cc1NC(=O)C=CCN(C)C",
    "GROUP_LABEL": "inactive"
  },
  {
    "SUBSTANCE_SMILES": "O=C(c1ccc(F)cc1)N1CCC[C@H](c2nc(-c3ccc(F)cc3)no2)C1",
    "GROUP_LABEL": "inactive"
  },
  {
    "SUBSTANCE_SMILES": "C[C@H]1[C@@H](OC(=O)CCC(=O)O)O[C@@H]2O[C@@]3(C)CC[C@@H]4[C@H](C)CC[C@@H]1[C@@]24OO3",
    "GROUP_LABEL": "active"
  },
  {
    "SUBSTANCE_SMILES": "O=C(C=CC#Cc1cccc(NS(=O)(=O)c2ccccc2)c1)NO",
    "GROUP_LABEL": "active"
  },
  {
    "SUBSTANCE_SMILES": "OCCN1C[C@H](O)[C@@H](O)[C@H](O)[C@@H]1CO",
    "GROUP_LABEL": "inactive"
  },
  {
    "SUBSTANCE_SMILES": "C=CC1=C(C(=O)O)N2C(=O)[C@@H](NC(=O)C(=NO)c3csc(N)n3)[C@H]2SC1",
    "GROUP_LABEL": "inactive"
  }
]
